This section presents compounds with their documented EC50 values.
tested on: Bmi-1; assay: Sandwich ELISA Assay (Bmi-1 ELISA) in HT-1080 cells; format: cell-based

For orientation, consider the following solved cases.
{"columns": ["Structure String", "Measure", "Result"],
 "data": [
  ["Cc1ccc(Nc2ccnc(-c3c(C(F)(F)F)nc4cnccn34)n2)cc1", "EC50", "10 to 100 nM"],
  ["FC(F)(F)c1ccc(Nc2ccnc(-c3c(C(F)(F)F)nc4ccccn34)n2)cc1", "EC50", "100 to 3000 nM"]
]}

Name the recorded EC50 for Cc1nc2cc(F)c(F)cc2n1-c1nc(N)cc(Nc2ccc(C(F)(F)F)c(F)c2)n1 .
100 to 3000 nM

Name the recorded EC50 for CCc1nc2ccccc2n1-c1nc(N)c(F)c(Nc2ccc(Cl)cc2)n1 .
10 to 100 nM

Name the recorded EC50 for CCc1nc2ccc(F)cc2n1-c1nc(N)cc(Nc2ccc(C(F)(F)F)cc2)n1 .
10 to 100 nM
